Catalogue of compounds with associated Inhibition
tested on: HepG2; assay: GSK_TCMDC: Percent inhibition of human HepG2 cell line. Test compounds present at 10uM.; type: functional

COMPOUND	READING UNIT	Inhibition
Cc1cc(O)c(CN(C)Cc2ccc3c(c2)OCCO3)cc1C(C)C	%	10
COC(=O)c1c(C#N)c(OC)cc(O)c1CSC[C@@H](CN1CCCCC1)Nc1nc(-c2ccc([N+](=O)[O-])cc2)cs1	%	8
NCCc1cccc(-c2cnc3[nH]cc(-c4ccc(C(=O)O)cc4)c3c2)c1.O=C(O)C(F)(F)F	%	4
COc1cc(C2Nc3ccc4ccccc4c3C3=C2C(=O)CC(C)(C)C3)ccc1Oc1ccc([N+](=O)[O-])cc1C#N (stereo unspecified)	%	8
COc1cccc2sc(Nc3nc(-c4ccccn4)cs3)nc12	%	41
COc1ccccc1Cc1c(C)nc2nc(N)nc(N)c2c1C.Cl	%	69
CCCCCC(C)N/C(=N/c1cccc(Cl)c1Cl)Nc1ccc(C#N)cc1O (stereo unspecified)	%	28
CC(O)C1CCCCN1C(=O)c1cccc(-c2cccc(-c3nc4cc(F)ccc4[nH]3)c2)c1 (stereo unspecified)	%	42
CC(=O)Nc1ccc(OCCCN(Cc2ccccc2OC(F)(F)F)c2ccc(C(F)(F)F)c(C#N)c2)c(Cl)c1	%	5
Cc1cccc2nc(-c3ccc(-c4cccc(CNCc5ccc(S(C)(=O)=O)cc5)c4)s3)[nH]c12.O=C(O)C(F)(F)F	%	31
COc1cccc(C(=O)NC(c2ccc(Cl)cc2Cl)c2cc(Cl)c3cccnc3c2O)c1 (stereo unspecified)	%	37

Where these numbers come from: ChEMBL document CHEMBL1157539
